System: Saccharomyces cerevisiae
Assay: protein stability index of tFT-peptide fusion (C-terminal peptide) (PSI (0-1 scale)); higher = more stable (slower turnover)
Details: genetic background: wild type; temperature: 30 C

[
  {
    "entrySequence": "GDGVIVEVEGVN",
    "protein stability index": 0.675
  },
  {
    "entrySequence": "GAVRWGGAGVGV",
    "protein stability index": 0.73
  },
  {
    "entrySequence": "VPVAGSFVGIRF",
    "protein stability index": 0.675
  },
  {
    "entrySequence": "SSLLPSPPPPLP",
    "protein stability index": 0.677
  },
  {
    "entrySequence": "RSIVFRVSRRLN",
    "protein stability index": 0.277
  },
  {
    "entrySequence": "PPPPPLSPPSLV",
    "protein stability index": 0.725
  },
  {
    "entrySequence": "RKKFKKQKKKNI",
    "protein stability index": 0.703
  },
  {
    "entrySequence": "WLVCGRSFVFTL",
    "protein stability index": 0.549
  },
  {
    "entrySequence": "CGSTLLPESYIQ",
    "protein stability index": 0.645
  },
  {
    "entrySequence": "GGVLGNGCGFGR",
    "protein stability index": 0.784
  },
  {
    "entrySequence": "PPPPLPRPPPPP",
    "protein stability index": 0.615
  },
  {
    "entrySequence": "SGVEGTRQGSVS",
    "protein stability index": 0.711
  },
  {
    "entrySequence": "PRGHLDEFCVVL",
    "protein stability index": 0.705
  },
  {
    "entrySequence": "SGSFQGNVRVPC",
    "protein stability index": 0.676
  },
  {
    "entrySequence": "GSVLWISCLIFC",
    "protein stability index": 0.3
  },
  {
    "entrySequence": "SGTRDELVFVAV",
    "protein stability index": 0.676
  },
  {
    "entrySequence": "VRSLLGLPLPGL",
    "protein stability index": 0.788
  },
  {
    "entrySequence": "PFVPPPHRDDSP",
    "protein stability index": 0.746
  },
  {
    "entrySequence": "LAARRHRACPPR",
    "protein stability index": 0.67
  }
]

----------
Tested on: Saccharomyces cerevisiae
Test: protein stability index of tFT-peptide fusion (C-terminal peptide) (PSI (0-1 scale)); higher = more stable (slower turnover)
Conditions: genetic background: wild type; temperature: 30 C

[
  {
    "entrySequence": "LPSPRRPPTPSA",
    "targetOfAssay": "Saccharomyces cerevisiae",
    "protein stability index": 0.657
  },
  {
    "entrySequence": "SLSERPKFSIYV",
    "targetOfAssay": "Saccharomyces cerevisiae",
    "protein stability index": 0.656
  },
  {
    "entrySequence": "AARRPARACGGQ",
    "targetOfAssay": "Saccharomyces cerevisiae",
    "protein stability index": 0.632
  },
  {
    "entrySequence": "IHLGVLTAFGLS",
    "targetOfAssay": "Saccharomyces cerevisiae",
    "protein stability index": 0.701
  },
  {
    "entrySequence": "FFRFCFLLLASS",
    "targetOfAssay": "Saccharomyces cerevisiae",
    "protein stability index": 0.25
  },
  {
    "entrySequence": "SSPPSPSPPPPT",
    "targetOfAssay": "Saccharomyces cerevisiae",
    "protein stability index": 0.678
  },
  {
    "entrySequence": "SRRRIENNKTEN",
    "targetOfAssay": "Saccharomyces cerevisiae",
    "protein stability index": 0.695
  },
  {
    "entrySequence": "APPPFLCSPFVA",
    "targetOfAssay": "Saccharomyces cerevisiae",
    "protein stability index": 0.698
  },
  {
    "entrySequence": "ASPRLTGCPNPR",
    "targetOfAssay": "Saccharomyces cerevisiae",
    "protein stability index": 0.686
  },
  {
    "entrySequence": "VRRAGVGEGITG",
    "targetOfAssay": "Saccharomyces cerevisiae",
    "protein stability index": 0.671
  },
  {
    "entrySequence": "GSRGGPVGEAAG",
    "targetOfAssay": "Saccharomyces cerevisiae",
    "protein stability index": 0.665
  },
  {
    "entrySequence": "DQMVILSHYSVR",
    "targetOfAssay": "Saccharomyces cerevisiae",
    "protein stability index": 0.683
  },
  {
    "entrySequence": "LVGLESCGERAG",
    "targetOfAssay": "Saccharomyces cerevisiae",
    "protein stability index": 0.69
  },
  {
    "entrySequence": "PRPPLPLFPSSL",
    "targetOfAssay": "Saccharomyces cerevisiae",
    "protein stability index": 0.723
  },
  {
    "entrySequence": "YASKNPSVVIFG",
    "targetOfAssay": "Saccharomyces cerevisiae",
    "protein stability index": 0.68
  },
  {
    "entrySequence": "CPIKSLLPGSFA",
    "targetOfAssay": "Saccharomyces cerevisiae",
    "protein stability index": 0.693
  },
  {
    "entrySequence": "VLPAGAGKGCVG",
    "targetOfAssay": "Saccharomyces cerevisiae",
    "protein stability index": 0.653
  },
  {
    "entrySequence": "LDHGRVVWVVVS",
    "targetOfAssay": "Saccharomyces cerevisiae",
    "protein stability index": 0.278
  },
  {
    "entrySequence": "RGVREVGSAELV",
    "targetOfAssay": "Saccharomyces cerevisiae",
    "protein stability index": 0.731
  }
]

----------
Tested on: Saccharomyces cerevisiae;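 further: PSI is a weighted mean of sequencing reads over stability bins, variants kept only with over 10 reads, mCherry proximal and sfGFP distal, peptide attached via GGGS linker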
Assay: protein stability index of tFT-peptide fusion (C-terminal peptide) (PSI (0-1 scale)); higher = more stable (slower turnover)
Conditions: genetic background: wild type; temperature: 30 C

[
  {
    "entrySequence": "PPCAPPPSPLAC",
    "protein stability index": 0.684
  },
  {
    "entrySequence": "ACREVAGAPGGL",
    "protein stability index": 0.671
  },
  {
    "entrySequence": "LYCLVEGVYTLI",
    "protein stability index": 0.662
  },
  {
    "entrySequence": "GRGSAGPARVST",
    "protein stability index": 0.697
  },
  {
    "entrySequence": "VPSLAVPPEGSV",
    "protein stability index": 0.678
  },
  {
    "entrySequence": "PGLPLPPFPFFS",
    "protein stability index": 0.762
  },
  {
    "entrySequence": "HPLPSSHLPPRP",
    "protein stability index": 0.75
  },
  {
    "entrySequence": "GKSGGTGAGEKR",
    "protein stability index": 0.661
  },
  {
    "entrySequence": "GASLFSEVMARE",
    "protein stability index": 0.688
  },
  {
    "entrySequence": "RGLGGWAECGRW",
    "protein stability index": 0.76
  },
  {
    "entrySequence": "SLPQAPLRPAPS",
    "protein stability index": 0.656
  },
  {
    "entrySequence": "PLPRPPSPPYPP",
    "protein stability index": 0.65
  },
  {
    "entrySequence": "KSKKRERDETKK",
    "protein stability index": 0.645
  },
  {
    "entrySequence": "GWGRGGFRVVVG",
    "protein stability index": 0.712
  },
  {
    "entrySequence": "GSTGRGEGSGVT",
    "protein stability index": 0.664
  },
  {
    "entrySequence": "PPELHTIRARQI",
    "protein stability index": 0.58
  },
  {
    "entrySequence": "LPPPHPPFPPRF",
    "protein stability index": 0.715
  },
  {
    "entrySequence": "HTTPGPYVLPWP",
    "protein stability index": 0.807
  },
  {
    "entrySequence": "YATLGPDRALVR",
    "protein stability index": 0.655
  },
  {
    "entrySequence": "TCTDTCIRGSRL",
    "protein stability index": 0.77
  },
  {
    "entrySequence": "LRIRSTSSPPRP",
    "protein stability index": 0.74
  },
  {
    "entrySequence": "SPLPPPRSSSPP",
    "protein stability index": 0.76
  },
  {
    "entrySequence": "TLYKSEQIAFFL",
    "protein stability index": 0.644
  },
  {
    "entrySequence": "KIKKKKKNTKTK",
    "protein stability index": 0.666
  },
  {
    "entrySequence": "NRKGNKHEKKYE",
    "protein stability index": 0.691
  },
  {
    "entrySequence": "VGDPHPIMQSLL",
    "protein stability index": 0.773
  },
  {
    "entrySequence": "SRGGSGKDTGRT",
    "protein stability index": 0.657
  },
  {
    "entrySequence": "ITSFIKSDKSSK",
    "protein stability index": 0.696
  },
  {
    "entrySequence": "THRAGLGANKGL",
    "protein stability index": 0.696
  },
  {
    "entrySequence": "PSPPLCPPRFSP",
    "protein stability index": 0.652
  },
  {
    "entrySequence": "SMYLPSSSDVLS",
    "protein stability index": 0.736
  },
  {
    "entrySequence": "GAVRRWGWVSFV",
    "protein stability index": 0.331
  },
  {
    "entrySequence": "PSPLALRTPSFS",
    "protein stability index": 0.692
  },
  {
    "entrySequence": "LLFRCGARSAGG",
    "protein stability index": 0.676
  },
  {
    "entrySequence": "WRLAGRRGIQCD",
    "protein stability index": 0.7
  },
  {
    "entrySequence": "GHVETQTRMASG",
    "protein stability index": 0.789
  },
  {
    "entrySequence": "GADGGLVSLGVS",
    "protein stability index": 0.743
  },
  {
    "entrySequence": "TLVFPRFLFLVV",
    "protein stability index": 0.452
  },
  {
    "entrySequence": "AERSVRGTTPGG",
    "protein stability index": 0.632
  },
  {
    "entrySequence": "FSSRLVFFFAAP",
    "protein stability index": 0.667
  },
  {
    "entrySequence": "AVDSGSLERIRM",
    "protein stability index": 0.69
  }
]
